Taken from PubChem BioAssay.

assay.target: Albumin (Bos taurus) (UniProt P02769)
Sequence (P02769 whole entry, looked up): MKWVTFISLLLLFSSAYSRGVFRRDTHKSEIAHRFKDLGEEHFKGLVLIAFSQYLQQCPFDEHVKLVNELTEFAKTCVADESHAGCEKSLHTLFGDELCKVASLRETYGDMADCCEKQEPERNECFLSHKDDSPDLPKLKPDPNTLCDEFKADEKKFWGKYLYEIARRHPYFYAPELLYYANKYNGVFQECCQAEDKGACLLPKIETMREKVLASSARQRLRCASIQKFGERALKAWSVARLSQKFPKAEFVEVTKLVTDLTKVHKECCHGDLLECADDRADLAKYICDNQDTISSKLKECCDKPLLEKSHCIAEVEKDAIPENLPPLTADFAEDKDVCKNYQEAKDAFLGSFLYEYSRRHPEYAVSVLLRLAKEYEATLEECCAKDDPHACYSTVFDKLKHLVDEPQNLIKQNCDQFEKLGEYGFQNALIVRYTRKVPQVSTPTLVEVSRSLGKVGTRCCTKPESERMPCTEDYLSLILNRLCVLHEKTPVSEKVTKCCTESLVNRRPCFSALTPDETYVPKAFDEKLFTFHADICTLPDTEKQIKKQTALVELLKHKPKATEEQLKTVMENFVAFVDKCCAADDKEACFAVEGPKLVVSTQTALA
method.description: bovine serum albumin binders on microarray, profiling panel, artefact control for SMM control protein annotation, biochemical, small-molecule microarray, Alexa647 label, 635/667 nm fluorescence (AID 1118);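 further: score merges 667 nm emission intensity and signal-to-noise per printed compound spot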
conditions.used: BSA-A647 binding, fluorescence 635 nm, higher = more signal
quantity.name: composite z-score

- COCCOC(=O)N1C(=O)[C@@]2(c3cc(C#CCC(C(=O)OC)C(=O)OC)ccc31)[C@H](c1ccc(OCCO)cc1)N1[C@H](c3ccccc3)[C@H](c3ccccc3)OC(=O)[C@H]1[C@@H]2C(=O)N1CCCCCCC1: 0.256
- CCCCC(O)C1C=CC2C(=O)NC(=O)C2N1Nc1ccc(Cl)cc1Cl (centres undefined): 0.891
- C=CCC(OC(C)=O)[C@@H]1[C@@H](N(Cc2cc3ccccc3o2)C(=O)Cc2ccc(OC)cc2)c2cc(OCCCO)ccc2N1C(=O)Cc1ccc2ccccc2c1 (some centres undefined): 0.402
- CC(C)C[C@@H]1NC(=O)[C@H]2C[C@@H](C(=O)NCCCCCNC(=O)CS)[C@@H](c3ccc(O)cc3)N2C1=O: -0.796
- NCCCC[C@@H]1NC(=O)[C@H]2C[C@@H](C(=O)NCc3ccc(F)cc3)[C@@H](c3ccc(O)cc3)N2C1=O: -0.135
- NC(=O)NCC#Cc1ccc2c(c1)[C@]1(C(=O)N2)[C@H](C(=O)Nc2nc3ccccc3s2)[C@H]2C(=O)O[C@H](c3ccccc3)[C@H](c3ccccc3)N2[C@@H]1c1ccc(OCCO)cc1: 0.0054
- CN(C)CCCCNC(=O)[C@H]1C[C@H]2C(=O)NCC(=O)N2[C@H]1c1cccc(OCCO)c1: -0.539
- COC(=O)[C@@]1(Cc2ccccc2)[C@@H]2[C@@H](CC(=O)[C@H]2CC(=O)C(=O)N(C)C)CN1C(=O)c1ccccc1: 0.579
- CC(C)(C)N1CC=CC23O[C@@H]4/C=C\CCCOC(=O)C4[C@H]2C(=O)N(CCCCCCO)[C@@H]3C1=O (some centres undefined): 0.708
- COCC(=C=CC[C@@H](O)c1cccc(OCCO)c1)C[C@@H](O)COCc1ccccc1: 0.809
- COC(=O)c1ccc([C@H](NC(=O)c2ccccc2)[C@]2(C)C[C@H]2C2CCCCC2)cc1: 0.543
- C=CCC(OC(C)=O)[C@@H]1[C@@H](N(Cc2cccc3ccccc23)C(=O)c2ccc(C)cc2)c2cc(OCCCO)ccc2N1C(=O)c1ccc2ccccc2n1 (some centres undefined): 0.526
- CN(C)CCCNC(=O)[C@@]1(Cc2ccccc2I)c2ccccc2C(=O)N(Cc2ccccc2)[C@H]1c1ccc(CO)cc1: -0.6
- C=CCC(OC(C)=O)[C@@H]1[C@@H](N(Cc2cc3ccccc3o2)C(=O)Cc2ccc(OC)cc2)c2cc(OCCCO)ccc2N1C(=O)Cc1ccc(OC)cc1 (some centres undefined): -0.477

====

method.description: small-molecule microarray binders of probe aWnt5a, primary screen, biochemical, biotinylated probe, 635/667 nm fluorescence (AID 1113);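 further: score merges 667 nm fluorescence intensity with signal-to-noise per printed feature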
conditions.used: higher = more signal
composite z-score for assorted molecules
quantity.name: composite z-score

* O=C1C2C=CC(C(O)C(c3ccccc3)c3ccccc3)N(Nc3ccccc3)C2C(=O)N1c1ccccc1 (configuration not stated) | -0.0051
* C=CCC(OC(C)=O)[C@@H]1[C@@H](N(Cc2cccc3ccccc23)C(=O)c2cccc3ccccc23)c2cc(OCCCO)ccc2N1C(=O)Cc1ccc2ccccc2c1 (some centres not stated) | -0.0685
* CC(C)(C)OC(=O)CC[C@]1(C(N)=O)N=C(c2ccc(OCCCO)cc2)O[C@H]1c1ccccc1CN=[N+]=[N-] | -0.096
* CCOC(=O)C[C@H]1[C@H](OC(=O)c2cc3ccccc3oc2=O)[C@@H](NC(=O)C2CCCCC2)c2cc(OCCCO)ccc2N1C(=O)Cc1ccc(OC)cc1 | 0.0633
* COC(=O)[C@@]1(CCS(=O)(=O)c2ccccc2)N=C(c2ccc(OCCCO)cc2)O[C@H]1c1ccccc1N=[N+]=[N-] | -0.0455
* CN1C=C(C(=O)OCCS(C)(=O)=O)C(C(=O)OCCS(C)(=O)=O)=CC(CCCO)=CC1c1ccc(CN2CCCC2)cc1 (configuration not stated) | -0.0087
* C=CCNC(=O)[C@@H]1[C@H]2C(=O)O[C@H](c3ccccc3)[C@H](c3ccccc3)N2[C@H](c2ccccc2OCCO)[C@@]12C(=O)N(C(=O)OCCOC)c1ccc(C#CCCO)cc12 | -0.006
